Data provenance is patent US20240279215A1.

Target: human NAMPT (Homo sapiens (Human), UniProt P43490)
Sequence (P43490 whole entry): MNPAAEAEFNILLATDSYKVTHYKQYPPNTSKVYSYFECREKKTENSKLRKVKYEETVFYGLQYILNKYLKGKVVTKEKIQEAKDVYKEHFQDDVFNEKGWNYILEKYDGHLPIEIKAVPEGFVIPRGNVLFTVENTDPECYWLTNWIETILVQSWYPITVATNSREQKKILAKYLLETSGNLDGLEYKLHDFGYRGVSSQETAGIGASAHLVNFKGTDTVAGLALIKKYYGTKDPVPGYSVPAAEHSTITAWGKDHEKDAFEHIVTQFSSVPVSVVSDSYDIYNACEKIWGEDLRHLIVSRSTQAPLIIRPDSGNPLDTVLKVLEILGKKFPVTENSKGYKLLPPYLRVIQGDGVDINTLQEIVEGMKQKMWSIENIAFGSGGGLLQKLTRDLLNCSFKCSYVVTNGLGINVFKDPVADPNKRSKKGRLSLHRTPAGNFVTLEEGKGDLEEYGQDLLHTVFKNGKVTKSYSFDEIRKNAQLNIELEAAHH
Assay: NMN fluorescence biochemical assay (human recombinant NAMPT enzyme assay)
pEC50: −log10 of the molar value.
Threshold check on pEC50: at or above 5 gives Satisfied, strictly below gives Not satisfied.

Given the entry O=C(Nc1ccc(CC2CCN(C3COC3)C3CC23)cc1)OCc1cnco1 (centres unmarked) , answer whether its pEC50 meets or surpasses 5.
Not satisfied

Also C[C@H](NC(=O)C1CC1)c1ccc(NC(=O)OCc2cnco2)cc1 , if possible.
Not satisfied

Continue with O=C(Nc1ccc(CC(=O)N2CCCC[C@@H]2CO)cc1)OCc1ccc(Cl)cc1
Not satisfied

Then what about the molecule CCS(=O)(=O)N1CC2(CC(Cc3ccc(NC(=O)OCc4cnco4)cc3F)C2)C1 ?
Not satisfied

Can you check CC1CCN(C(=O)Cc2ccc(NC(=O)OCc3ccc(Cl)cc3)cc2)CC1 next?
Satisfied

Next molecule up: CN(Cc1ccc(NC(=O)OCc2ccc(Cl)cc2)cc1)C(=O)c1cn[nH]c1
Satisfied

Please give the result for COC(=O)N1CC2CCC(C1)C2Cc1ccc(NC(=O)OCc2cnco2)cc1 (centres unmarked) too.
Satisfied

Follow-up item: CC1(C(=O)NCc2ccc(NC(=O)OCc3ccc(Cl)cc3)cc2)COC1
Not satisfied

Follow-up item: CCc1cc(C(=O)NCc2ccc(NC(=O)OCc3ccc(Cl)cc3)cc2)n(C)n1
Not satisfied

Follow-up item: CS(=O)(=O)N1CCC(Cc2ccc(NC(=O)OCc3ccc(Cl)cc3)cc2)CC1
Satisfied

Also, O=C(Nc1ccc(C2CCN(C(=O)C3CC3)CC2)cc1)OCc1cnco1 please.
Not satisfied

Now try O=C(Nc1ccc(CC2CCN(C(=O)N3CC(F)(F)C3)CC2)cc1)OCc1cnco1 .
Not satisfied

Repeat with CC(C)n1nccc1C(=O)N(C)Cc1ccc(NC(=O)OCc2ccc(Cl)cc2)cc1
Satisfied
